assay.procedure: Oral bioavailability in fasted rats
Format: ADME, organism-based
experimental.context: rat, in vivo, read-out: Bioavailabiility
experimental.readout: bioavailability (%)
Numbers only, in %.

[in] Fill in: bioavailability of CC(=O)N1CCC(C(=O)N(CCCN2CCC(Cc3ccc(C(N)=O)cc3)CC2)c2ccc(C)c(Cl)c2)CC1 is ___
[out] 9.5

====

Tested on: Human immunodeficiency virus 1
assay.procedure: Effective concentration to inhibit the replication of HIV-1 R5 strain
Format: functional, organism-based
experimental.readout: EC50 (nM)
Answers are plain numbers, in nM.

[in] Fill in: EC50 of CC(=O)N1CCC(C(=O)N(CCCN2CCC(Cc3ccc(C(N)=O)cc3)CC2)c2ccc(C)c(Cl)c2)CC1 is ___
[out] 1.1
